Exercise: state measured IC50 for each of the molecules provided.
STUDY_SYSTEM: Human NPY5 receptor (Homo sapiens, UniProt Q15761)
Sequence (Q15761 whole entry): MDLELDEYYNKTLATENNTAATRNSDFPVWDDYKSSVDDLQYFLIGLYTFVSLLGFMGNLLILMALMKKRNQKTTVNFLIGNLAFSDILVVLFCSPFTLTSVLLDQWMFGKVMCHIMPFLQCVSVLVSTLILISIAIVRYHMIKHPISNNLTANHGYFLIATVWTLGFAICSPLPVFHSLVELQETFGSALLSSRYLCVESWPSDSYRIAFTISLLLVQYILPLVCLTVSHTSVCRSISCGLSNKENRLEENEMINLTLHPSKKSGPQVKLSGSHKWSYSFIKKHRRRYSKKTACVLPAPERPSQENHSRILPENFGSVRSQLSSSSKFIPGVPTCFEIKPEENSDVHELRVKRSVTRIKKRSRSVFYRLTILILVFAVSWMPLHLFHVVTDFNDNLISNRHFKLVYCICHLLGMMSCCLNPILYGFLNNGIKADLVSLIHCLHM
TEST_DESCRIPTION: Human NPY5 receptor binding assay ([125I]PYY, membrane protein)
MEASUREMENT_SETUP: [125I]PYY binding, read-out: hNPY5 IC50

Form field IC50, entry O=C(CN1CCC(O)CC1)Nc1ccc(C(=O)c2ccccc2)cc1 [Compound 42] : 1.6 µM

Consider CCCCCCCCCCNCC(=O)Nc1ccc(C(=O)c2ccccc2)cc1 [Compound 150] . Its measured IC50 is > 5 µM

// IC50 value for O=C(CN1CCC(O)(CCCc2ccccc2)CC1)Nc1ccc(C(=O)c2ccccc2)cc1 [Compound 60] : 4.2 µM

# molecule COc1ccc(C(=O)C2CCN(CC(=O)Nc3ccc(C4CCCCC4)cc3)CC2)cc1 [Compound 116] ; its IC50 = 9.5 µM

// recorded IC50 for O=C(CNCCNc1ccc([N+](=O)[O-])cn1)Nc1ccc(C2CCCCC2)cc1 [Compound 147] : > 5 µM

Recorded IC50 (molecule O=C(CNC1CCC1)Nc1ccc(C(=O)c2ccccc2)cc1 [Compound 242] ): 4.4 µM

Reported IC50 of COC(CNCC(=O)Nc1ccc(C2CCCCC2)cc1)OC [Compound 241] : 0.28 µM

Entry COC[C@@H]1CCCN1CC(=O)Nc1ccc(C2CCCCC2)cc1 [Compound 93] , IC50 reported as 0.48 µM

get_value(item= O=C(CNc1nc[nH]n1)Nc1ccc(C(=O)c2ccccc2)cc1 [Compound 137] , readout=IC50) returns > 5 µM

IC50 measured on CC1(C)C[C@@H]2C[C@@](C)(CN2CC(=O)Nc2ccc(C(=O)c3ccccc3)cc2)C1 [Compound 105] = 5.1 µM

get_value(item= O=C(CN1CCC[C@H]1CN1CCCC1)Nc1ccc(C2CCCCC2)cc1 [Compound 79] , readout=IC50) returns 3.5 µM

Entry CC(=O)C1(c2ccccc2)CCN(CC(=O)Nc2ccc(C(=O)c3ccccc3)cc2)CC1 [Compound 86] ; IC50 = 0.001 µM

Field IC50 (entry CC1(C)CCN(CC(=O)Nc2ccc(C3CCCCC3)cc2)CC1 [Compound 34] ) reads 1.4 µM

response.value for O=C(CN1CCC(C(=O)N2CCCCC2)(c2ccccc2)CC1)Nc1ccc(C2CCCCC2)cc1 [Compound 72] (field: IC50) = 1 µM

Form: molecule = CCNC1CCN(CC(=O)Nc2ccc(C(=O)c3ccccc3)cc2)C1 (centres unmarked) [Compound 206] ; IC50 = 0.042 µM

Please fill in: IC50 reported for CC(C)(C)OC(=O)NC1CCN(CC(=O)Nc2ccc(C3CCCCC3)cc2)C1 (centres unmarked) [Compound 194] = 0.037 µM

Query O=C(CN1CCC(N2CCCCC2)CC1)Nc1ccc(C2CCCCC2)cc1 [Compound 24] yields IC50 of 2.9 µM

Notebook: O=C(CN1CCN(c2ccc(Cl)cc2)CC1)Nc1ccc(C(=O)c2ccccc2)cc1 [Compound 10] , IC50 read as 2.9 µM

Measured IC50, CC(=O)NCC1(c2ccccc2)CCN(CC(=O)Nc2ccc(C(=O)c3ccccc3)cc2)CC1 [Compound 56] : 0.208 µM

O=C(CN1CCC(C(=O)c2ccc(F)cc2)CC1)Nc1ccc(C(=O)c2ccccc2)cc1 [Compound 121] yielded IC50 of 0.095 µM

Recorded IC50 (molecule O=C(CNCC1CC1)Nc1ccc(C2CCCCC2)cc1 [Compound 174] ): 0.61 µM

The measured IC50 associated with O=C(CNCCCc1ccccc1)Nc1ccc(C2CCCCC2)cc1 [Compound 141] reads > 5 µM

Please fill in: IC50 reported for O=C(CN1C[C@H](O)C[C@H]1C(=O)O)Nc1ccc(C2CCCCC2)cc1 [Compound 98] = > 10 µM

Item: CCNC1CCN(CC(=O)Nc2ccc(C3CCCCC3)cc2)C1 (centres unmarked) [Compound 199] | IC50: 0.82 µM

Short answer for NCCNCC1CCN(CC(=O)Nc2ccc(C(=O)c3ccccc3)cc2)CC1 [Compound 134] : IC50 was > 5 µM

The recorded IC50 for entry O=C(CN1CCC(NC(=O)C(F)(F)F)C1)Nc1ccc(C(=O)c2ccccc2)cc1 (centres unmarked) [Compound 207] equals 0.048 µM

Per the records, this molecule ( O=C(CN1CCC(O)(c2cccc(C(F)(F)F)c2)CC1)Nc1ccc(C(=O)c2ccccc2)cc1 [Compound 63] ) has IC50 equal to 0.57 µM

What the record says about COc1ccccc1CNCC(=O)Nc1ccc(C2CCCCC2)cc1 [Compound 149] : IC50 is > 5 µM

IC50 reading for O=C(CN1CCC(C(=O)O)CC1)Nc1ccc(C(=O)c2ccccc2)cc1 [Compound 40] : > 10 µM

Record O=C(CN1CCC[C@H]1CN1CCCC1)Nc1ccc(C(=O)c2ccccc2)cc1 [Compound 78] , field IC50: > 5 µM

Reported IC50 ( NC1CCN(CC(=O)Nc2ccc(C(=O)c3ccccc3)cc2)C1 (centres unmarked) [Compound 112] ) = 3.9 µM

For this molecule ( O=C(CN(c1ccccn1)c1ccccn1)Nc1ccc(C(=O)c2ccccc2)cc1 [Compound 22] ), measured IC50 is 9.9 µM

# IC50 of CCCOC1(c2ccccc2)CCN(CC(=O)Nc2ccc(C(=O)c3ccccc3)cc2)CC1 [Compound 66] = 0.78 µM

Form: molecule = CC(=O)OC1CC2CC1N(CC(=O)Nc1ccc(C3CCCCC3)cc1)C2 (centres unmarked) [Compound 221] ; IC50 = 0.029 µM

Entry under test: COc1ccc2[nH]cc(CCNCC(=O)Nc3ccc(C4CCCCC4)cc3)c2c1 [Compound 144] . Its IC50 was > 5 µM

====

STUDY_SYSTEM: Rat NPY5 receptor (Rattus norvegicus)
Sequence (Q63634 whole entry): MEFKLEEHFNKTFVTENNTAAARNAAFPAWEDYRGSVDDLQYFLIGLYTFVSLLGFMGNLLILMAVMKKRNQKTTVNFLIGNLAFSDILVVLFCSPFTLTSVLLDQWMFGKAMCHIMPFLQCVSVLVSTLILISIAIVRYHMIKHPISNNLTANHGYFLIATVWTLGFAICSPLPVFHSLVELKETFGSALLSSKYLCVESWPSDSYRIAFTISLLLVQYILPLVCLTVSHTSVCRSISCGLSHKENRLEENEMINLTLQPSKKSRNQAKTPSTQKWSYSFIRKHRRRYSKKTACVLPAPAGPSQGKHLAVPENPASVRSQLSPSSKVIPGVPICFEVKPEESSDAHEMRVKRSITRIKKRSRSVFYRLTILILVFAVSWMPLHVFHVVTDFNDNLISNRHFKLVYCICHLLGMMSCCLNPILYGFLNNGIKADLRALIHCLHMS
TEST_DESCRIPTION: Rat NPY5 receptor binding assay ([125I]PYY, membrane protein)
MEASUREMENT_SETUP: [125I]PYY, read-out: rNPY5 IC50
Structures can show the parent of a compound that is named as a salt.
TEST_READOUT: pIC50
Conceptually, pIC50 converts a concentration in mol/L into minus its log10.

# pIC50 (compound: Cl.O=C(CN1CCC(C(=O)c2ccc(F)cc2)CC1)Nc1ccc(C2CCCCC2)cc1 [Compound 292, hydrochloride] ) is 7.08

The value of pIC50 measured for the compound CCN(CC)c1ccc(NC(=O)CN2CCC(n3c(=O)[nH]c4ccccc43)CC2)cc1 [Compound 336, reference compound] turned out to be 6.69

Reported pIC50 ( O=C(CN1CCC(O)(Cc2ccccc2)CC1)Nc1ccc(-c2ccccc2)cc1 [Compound 315, hydrochloride] ) = 5.70

The recorded pIC50 for entry CC(=O)c1ccc(NC(=O)CN2CCC(n3c(=O)[nH]c4ccccc43)CC2)cc1 [Compound 354, reference compound] equals 6.87

// pIC50 value for O=C(CN1CCC(n2c(=O)[nH]c3ccccc32)CC1)Nc1ccc(Oc2ccccc2)cc1 [Compound 352, reference compound] : 7.20

The compound listed as CCCCOc1ccc2ccc(NC(=O)CN3CCC(n4c(=O)[nH]c5ccccc54)CC3)cc2c1 [Compound 343, reference compound] has a reported pIC50 of 7.35

Looking up O=C(CN1CCC(n2c(=O)[nH]c3ccccc32)CC1)Nc1ccc(-c2ccc(F)cc2)cc1 , I see its pIC50 listed as 7.06

Reported pIC50 for CC(C(=O)Nc1ccc(C2CCCCC2)cc1)N1CCC(n2c(=O)[nH]c3ccccc32)CC1 (centres unmarked) was 7.92

So for CC(C(=O)Nc1ccc(-c2ccccc2)cc1)N1CCC(n2c(=O)[nH]c3ccccc32)CC1 (centres unmarked) [Compound 329, hydrochloride] , the logged pIC50 turned out to be 7.80

Reported pIC50 ( O=C(CN1CCC(n2c(=O)[nH]c3ccccc32)CC1)Nc1ccc(O)cc1 [Compound 345, reference compound] ) = 5.48

# pIC50 (compound: CC(=O)NC1CCN(CC(=O)Nc2ccc(C(=O)c3ccccc3)cc2)C1.O=C(O)C(=O)O (centres unmarked) ) is 6.74

// COC(=O)c1ccc(NC(=O)CN2CCC(n3c(=O)[nH]c4ccccc43)CC2)cc1 [Compound 360, reference compound] : pIC50 value = 7.25

pIC50 reported for this compound O=C(CN1CCC(n2c(=O)[nH]c3ccccc32)CC1)Nc1cccc(-c2ccccc2)c1 [Compound 323, hydrochloride] : 7.59

O=C(CNC(c1ccccc1)c1ccccc1)Nc1ccc(C2CCCCC2)cc1 yielded pIC50 of 5.19

====

STUDY_SYSTEM: UniProtKB P49146
Sequence (P49146 1-381): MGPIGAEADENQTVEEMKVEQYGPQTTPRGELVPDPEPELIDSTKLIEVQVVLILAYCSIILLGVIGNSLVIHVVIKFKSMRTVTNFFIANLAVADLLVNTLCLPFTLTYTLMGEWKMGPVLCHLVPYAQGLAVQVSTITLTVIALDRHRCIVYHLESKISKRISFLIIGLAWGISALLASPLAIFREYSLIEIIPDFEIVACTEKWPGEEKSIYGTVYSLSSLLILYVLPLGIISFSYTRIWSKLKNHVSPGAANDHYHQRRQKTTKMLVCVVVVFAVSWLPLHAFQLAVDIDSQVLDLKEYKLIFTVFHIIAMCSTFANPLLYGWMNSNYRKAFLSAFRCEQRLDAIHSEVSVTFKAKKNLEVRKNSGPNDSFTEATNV
TEST_DESCRIPTION: Y2 receptor binding assay ([125I]PYY, membrane protein)
MEASUREMENT_SETUP: [125I]PYY, membrane protein; read-out: hNPY2 IC50
Experimental: B. Human Y2 and Y4/PP1 Receptor Binding Assays Binding assays were performed on GF/C Millipore 96-well plates pretreated with 0.02% polyethylenimine. […] After a 2 hour incubation at room temperature with constant mixing, the samples are aspirated on a vacuum manifold, and rinsed with ice-cold binding buffer. The amount of radioactivity in each well is quantitated with either gamma counting or liquid scintillation.
pIC50: −log10 of the molar value.
TEST_READOUT: pIC50

// O=C(CN1CCC(n2c(=O)[nH]c3ccccc32)CC1)Nc1cccc2ccc(O)cc12 [Compound 340, reference compound] : pIC50 value = < 5.30

pIC50 reported for this compound Cl.O=C(CN1CCC(n2c(=O)[nH]c3ccccc32)CC1)Nc1cccc2c1C(=O)c1ccccc1-2 [Compound 307, hydrochloride] : < 5.30

Entry Cl.O=C(CN1CCC(n2c(=O)[nH]c3ccccc32)CC1)N1CCCCCCC1 [Compound 305, hydrochloride] , pIC50 reported as < 5.30

// Nc1ccccc1NC(=O)CN1CCC(n2c(=O)[nH]c3ccccc32)CC1 [Compound 331, reference compound] : pIC50 value = < 5.30

Short answer for Cl.O=C(CN1CCC(n2c(=O)[nH]c3ccccc32)CC1)Nc1ccc2c(c1)C(=O)c1ccccc1-2 [Compound 306, hydrochloride] : pIC50 was < 5.30

For this compound ( O=C(CN1CCN(c2ccccc2Cl)CC1)Nc1ccc(C2CCCCC2)cc1.O=C(O)C(=O)O ), measured pIC50 is < 5.30

Source: patent US6410792B1
